// provenance: patent US20180355050A1

# target.under.test: T1, recombinant human CD40L (human, UniProt P29965 108-261, limits assumed)
# T1 construct: Bought soluble recombinant protein (R&D, HEK, 6420-CL/CF); also called hCD40L; human CD40L (HEK, R&D)
# T1 sequence: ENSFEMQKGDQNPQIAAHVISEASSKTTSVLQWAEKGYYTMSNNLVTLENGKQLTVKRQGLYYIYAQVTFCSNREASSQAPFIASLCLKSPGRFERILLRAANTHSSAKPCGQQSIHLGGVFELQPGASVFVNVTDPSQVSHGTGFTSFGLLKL
# assay.remarks: SPR off-rate (ProteOn, 37 °C), immobilised recombinant human CD40L
binders and their reported fold improved off-rate over parental C0100046B03
reported.property: fold improved off-rate over parental C0100046B03

[[record]]
binder = "C0100046B03 Y100I (VHH, name in Kabat numbering) VHH: EVQLVESGGGLVQAGGSLRLSCAASGRTPLNYHMAWFRQAPGKEREFVAAISSLLGSTDYSDSLKDRFTISRDNAKATLYLRMNNLKPEDTAVYYCAARETTHISTSDRVNEMRHYDYWGQGTLVTVSS"
measured = "1.5 fold"

[[record]]
binder = "C0100046B03 H100kA (VHH, name in Kabat numbering) VHH: EVQLVESGGGLVQAGGSLRLSCAASGRTPLNYHMAWFRQAPGKEREFVAAISSLLGSTDYSDSLKDRFTISRDNAKATLYLRMNNLKPEDTAVYYCAARETTHYSTSDRVNEMRAYDYWGQGTLVTVSS"
measured = "~2 fold"

[[record]]
binder = "C0100046B03 H100kS (VHH, name in Kabat numbering) VHH: EVQLVESGGGLVQAGGSLRLSCAASGRTPLNYHMAWFRQAPGKEREFVAAISSLLGSTDYSDSLKDRFTISRDNAKATLYLRMNNLKPEDTAVYYCAARETTHYSTSDRVNEMRSYDYWGQGTLVTVSS"
measured = "~2 fold"

[[record]]
binder = "C0100046B03 H100kN (VHH, name in Kabat numbering, single mutation) VHH: EVQLVESGGGLVQAGGSLRLSCAASGRTPLNYHMAWFRQAPGKEREFVAAISSLLGSTDYSDSLKDRFTISRDNAKATLYLRMNNLKPEDTAVYYCAARETTHYSTSDRVNEMRNYDYWGQGTLVTVSS"
measured = "2.6 fold"

